# Lookup of reported TGI keyed by entry
- System: SNB-75 CNS
- test_protocol: NCI tumour cell line growth inhibition, 48 h
Please respond with the number in µM and leave the unit unwritten.

Worked examples follow.
CC/C(=C(/CC)c1ccc(OP(=O)([O-])[O-])cc1)c1ccc(OP(=O)([O-])[O-])cc1.N.N.N.N.[Pt+4].[Pt+4] = 7.4
O=C(/C=C/c1cccnc1)/C=C/c1cccnc1 = 7.33
CSc1ccc(C=C2N=C(c3ccccc3)N(c3cc(C(=O)c4ccccc4)ccc3N3C(=O)/C(=C/c4ccc(SC)cc4)N=C3c3ccccc3)C2=O)cc1 = 61.5

Could you now consider this next compound?
Request: So what TGI did `CC[n+]1c(/C=C/c2ccc(N(CCCl)CCCl)cc2)ccc2cc(Br)ccc21` get with SNB-75 CNS?
Response: 0.936

====

# Lookup of reported TGI keyed by entry
- Tested on: NCI-H226 lung
- test_protocol: NCI tumour cell line growth inhibition, 48 h

Worked examples follow.
COc1cccc(C2C3=C(COC3=O)N(CCO)c3cc4c(cc32)CCC4)c1 (stereo not drawn) = > 27.8 µM
CC1(C)CC[C@]2(C(=O)O)CCC3(C)C(=CCC4[C@@]5(C)CC[C@H](OC6OCC(O)C(O)C6OC6OC(CO)C(O)C(O)C6O)C(C)(C)C5CC[C@]43C)C2C1 (stereo partly drawn) = 3.38 µM

Request: Could you tell me which TGI is on file for `O=C1/C(=C\c2ccccc2)CN(C(=O)c2ccccc2F)C/C1=C\c1ccccc1` ?
Response: 21.5 µM

Request: Could you tell me which TGI is on file for COc1ccc(C(c2ccccc2)N2C(=O)CCC2C(=O)O)cc1OC (stereo not drawn) ?
Response: > 100 µM

Request: Could you tell me which TGI is on file for COc1ccc(C2=NN(c3ccc(S(N)(=O)=O)cc3)C(c3ccc(Cl)cc3)C2)c(O)c1 (stereo not drawn) ?
Response: 19.3 µM

Request: Could you tell me which TGI is on file for `CC[n+]1c(/C=C/c2ccc(N(CCCl)CCCl)cc2)ccc2cc(Br)ccc21` ?
Response: 7.48 µM

Request: Could you tell me which TGI is on file for `Nc1cccc2cc(S(=O)(=O)Nc3ccc(C(=O)O)cc3)ccc12` ?
Response: > 100 µM

Request: Could you tell me which TGI is on file for Nc1nc(Cl)cc(NCC2(CO)CC(O)C2)n1 (stereo not drawn) ?
Response: > 100 µM

====

- Tested on: HS 578T breast
- test_protocol: NCI tumour cell line growth inhibition, 48 h
# Lookup of reported TGI keyed by entry

Worked examples follow.
Cc1c(/C=N\NC(=S)N(C)CCN(C)C(=S)N/N=C\c2c(C)n(C)n(-c3ccccc3)c2=O)c(=O)n(-c2ccccc2)n1C = > 100 µM
CC(=O)NNc1nc(C)c(C(/C=C/c2ccc3c(c2)OCO3)=N/NC(=O)c2ccncc2)s1 = > 100 µM
CC(=O)NC1C(OCc2ccccc2)OC(CO)C(O)C1OC(C)C(=O)NC(C(=O)NC(CCC(=O)Nc1ccc2c(c1)CN1C(=O)c3ccccc3C1=N2)C(N)=O)C(C)C (stereo unspecified) = > 100 µM
Cc1ccc2c(c1)/C(=N\N=C/c1cn(C(C)C)c3ccccc13)C(=O)N2 = > 100 µM
ClCc1nc2cc(Cl)ccc2o1 = > 61.5 µM

Request: Could you tell me which TGI is on file for COC1(CCO)CC=CCC1(CCO)OC (stereo unspecified) ?
Response: > 100 µM

Request: Could you tell me which TGI is on file for Nc1nc(Cl)c(N)c(NCC2(CO)CC(O)C2)n1 (stereo unspecified) ?
Response: > 100 µM

Request: Could you tell me which TGI is on file for `O=S(=O)(Nc1ccc2ccc3cccc4ccc1c2c34)c1ccccc1` ?
Response: > 100 µM

====

- Test system: SNB-75 CNS
- test_protocol: NCI tumour cell line growth inhibition, 48 h
experimental_readout: TGI

Worked examples follow.
Nc1ccc(C(=O)O)c2[nH]c3ccccc3c(=O)c12 = > 100 µM
Cc1cc(N(CCC#N)CCC#N)ccc1N=Nc1ccc([N+](=O)[O-])cc1 = > 10 µM
CCN1CCC(O)(c2ccccc2)C(C(=O)c2ccccc2)C1 (centres undefined) = > 100 µM

Request: So what TGI did COC(=O)C(NC(=O)C12CCC(C)(C(=O)O1)C2(C)C)c1cc(C(C)(C)C)c(O)c(C(C)(C)C)c1 (centres undefined) get with SNB-75 CNS?
Response: > 100 µM

====

# Lookup of reported TGI keyed by entry
- Test system: HS 578T breast
- test_protocol: NCI tumour cell line growth inhibition, 48 h

Worked examples follow.
C1=C(N2CCOCC2)/C(=C2\SC(=Nc3ccccc3)C(=Nc3ccccc3)N2c2ccccc2)CC1 = > 100 µM
c1ccc(COc2ccc(Nc3ncnc4ccc(-c5ccco5)cc34)cc2)cc1 = > 23.5 µM

Could you now consider this next compound?
Request: Could you tell me which TGI is on file for COC(=O)C1(C)CCc2c(ccc3ccccc23)C1=O (stereo not drawn) ?
Response: > 100 µM
